- TESTED ON: interaction of human SOS1 (SOS1) with human K-RasG12C (Homo sapiens (Human), UniProt Q07889)
- Sequence (Q07889 564-1049 limits assumed): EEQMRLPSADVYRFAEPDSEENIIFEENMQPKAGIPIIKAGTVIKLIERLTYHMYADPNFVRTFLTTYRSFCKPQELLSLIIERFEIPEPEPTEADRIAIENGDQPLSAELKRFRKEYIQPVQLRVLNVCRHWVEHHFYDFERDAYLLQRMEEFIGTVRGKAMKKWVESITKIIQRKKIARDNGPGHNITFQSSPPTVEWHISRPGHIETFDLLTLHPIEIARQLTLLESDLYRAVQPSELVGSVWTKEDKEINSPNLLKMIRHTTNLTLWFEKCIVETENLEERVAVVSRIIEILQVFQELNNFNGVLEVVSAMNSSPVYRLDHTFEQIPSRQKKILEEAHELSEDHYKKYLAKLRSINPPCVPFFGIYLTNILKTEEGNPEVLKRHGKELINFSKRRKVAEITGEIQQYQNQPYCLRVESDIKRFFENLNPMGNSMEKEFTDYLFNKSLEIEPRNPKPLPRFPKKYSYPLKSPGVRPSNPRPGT
- TEST DETAILS: Biochemical assay: hK-RasG12C interaction assay with hSOS1 (HTRF)
- REPORTED CONDITIONS: GST-hK-RasG12C with His-hSOS1, 60 min incubation at 20° C., mean, read-out: K-RasG12C - SOS interaction assay IC50 (mean)
pIC50: −log10 of the molar value.
RECORDED ENDPOINT: pIC50

> print(dat)
                                   molecule  recorded.endpoint  endpoint.result
1  COCC(=O)N1CCP(=O)(c2cc3c(N[C@H](C)c4cccc(C(F)F)c4F)nc(C)nc3cn2)CC1 [Example 154]              pIC50             8.21
2  [2H]C([2H])(O)C(F)(F)c1cccc([C@@H](C)Nc2nc(C)nc3cnc(P(C)(C)=O)cc23)c1F [Example 60]              pIC50             7.87

[I] CCP(C)(=O)c1cc2c(N[C@H](C)c3cccc(C(F)(F)C(C)O)c3F)nc(C)nc2cn1 (single isomer, unassigned) [Example 77]
[II] Cc1nc(N[C@H](C)c2cccc(C(F)F)c2F)c2cc(P3(=O)CCN(C(=O)C4CC4)CC3)ncc2n1 [Example 163]
Input: Given I and II , report the one with the higher recorded pIC50. The response must carry the label of the picked entry.
Output: II

* * *

- TESTED ON: interaction of human SOS1 (SOS1) with human K-RasG12C (Homo sapiens (Human), UniProt Q07889)
- TEST DETAILS: Biochemical assay: hK-RasG12C interaction assay with hSOS1 (HTRF)
- REPORTED CONDITIONS: GST-hK-RasG12C with His-hSOS1, 60 min incubation at 20° C., mean, read-out: K-RasG12C - SOS interaction assay IC50 (mean)
RECORDED ENDPOINT: IC50 (µM)

Check out these entries, answers already filled in.
> print(dat)
                                   compound  recorded.endpoint  endpoint.result
1  CC(=O)N1CCP(=O)(c2cc3c(N[C@H](C)c4cccc(C(F)(F)CN(C)S(C)(=O)=O)c4F)nc(C)nc3cn2)CC1               IC50          0.00395
2  CC(=O)N1CCP(=O)(c2cc3c(N[C@H](C)c4cccc(C(F)(F)C(=O)NC5CC5)c4F)nc(C)nc3cn2)CC1               IC50           0.0159
3  CCP(C)(=O)c1cc2c(N[C@H](C)c3cccc(C(F)(F)C(C)(C)O)c3F)nc(C)nc2cn1 (single isomer, unassigned) [Example 68]               IC50           0.0282
4  Cc1nc(N[C@H](C)c2cccc(C(F)F)c2F)c2cc(P3(=O)CCN(C(=O)C4(C(F)F)CC4)CC3)ncc2n1               IC50           0.0127
5  CCP(=O)(CC)c1cc2c(N[C@H](C)c3cccc(C(F)(F)CO)c3F)nc(C)nc2cn1               IC50           0.0178

[A] Cc1nc(N[C@H](C)c2cccc(C(F)F)c2F)c2cc(P3(=O)CCCC3)c(C)nc2n1
[B] Cc1nc(N[C@H](C)c2cccc(C(F)(F)CNS(C)(=O)=O)c2F)c2cc(P3(=O)CCN(C(=O)C4CC4)CC3)ncc2n1
Input: Given A and B , report the one with the higher recorded IC50. The response must carry the label of the picked entry.
Output: A

* * *

- TESTED ON: interaction of human SOS1 (SOS1) with human K-RasG12C (Homo sapiens (Human), UniProt Q07889)
- TEST DETAILS: Biochemical assay: hK-RasG12C interaction assay with hSOS1 (HTRF)
- REPORTED CONDITIONS: GST-hK-RasG12C with His-hSOS1, 60 min incubation at 20° C., mean, read-out: K-RasG12C - SOS interaction assay IC50 (mean)
RECORDED ENDPOINT: IC50 (nM)

> print(dat)
                                    compound  recorded.endpoint  unit.descriptor  endpoint.result
 1  CCP(C)(=O)c1cc2c(N[C@H](C)c3cccc(C(F)(F)C(C)O)c3F)nc(C)nc2cn1 (single isomer, unassigned) [Example 76]               IC50               nM             21.3
 2  COC(C)(C)C(F)(F)c1cccc([C@@H](C)Nc2nc(C)nc3cnc(P(C)(C)=O)cc23)c1F [Example 121]               IC50               nM             87.1
 3  Cc1nc(N[C@H](C)c2cccc(C(F)F)c2F)c2cc(P3(=O)CCN(C(=O)[C@@H](C)O)CC3)ncc2n1 [Example 150]               IC50               nM             4.76
 4  CO[C@@H](C)C(=O)N1CCP(=O)(c2cc3c(N[C@H](C)c4cccc(C(F)F)c4F)nc(C)nc3cn2)CC1 [Example 149]               IC50               nM               18
 5  Cc1nc(N[C@H](C)c2cccc(C(F)(F)C(C)(C)O)c2F)c2cc(P(C)(C)=O)nc(C)c2n1 [Example 11]               IC50               nM             52.9
 6  CC(=O)N1CCP(=O)(c2cc3c(N[C@H](C)c4cccc(C(F)(F)CN(C(C)=O)C5CC5)c4F)nc(C)nc3cn2)CC1 [Example 202]               IC50               nM             3.89
 7  COCC(=O)N1CCP(=O)(c2cc3c(N[C@H](C)c4cccc(C(F)(F)F)c4C)nc(C)nc3cn2)CC1 [Example 177]               IC50               nM             5.01
 8  CC(=O)N1CCP(=O)(c2cc3c(N[C@H](C)c4cccc(C(F)(F)F)c4F)nc(C)nc3cn2)CC1 [Example 142]               IC50               nM              6.3
 9  Cc1nc(N[C@H](C)c2cccc(C(F)(F)C(C)(C)O)c2F)c2cc(P3(=O)CCCC3)cnc2n1 [Example 16]               IC50               nM             10.6
10  COCC(F)(F)c1cccc([C@@H](C)Nc2nc(C)nc3cnc(P4(=O)CCN(C(C)=O)CC4)cc23)c1 [Example 143]               IC50               nM             12.6

[P] Cc1nc(N[C@H](C)c2cccc(C(F)(F)F)c2C)c2cc(P3(=O)CCCC3)c(C)nc2n1 [Example 100]
[Q] Cc1nc(N[C@H](C)c2cccc(C(F)(F)CO)c2F)c2cc(P(C)(C)=O)ccc2n1 [Example 33]
[R] Cc1nc(N[C@H](C)c2cccc(C(F)(F)CO)c2F)c2cc(P(C)(=O)C(C)C)ncc2n1 (single isomer, unassigned) [Example 134]
Input: // ranking: key=IC50, reverse=True Answer by listing the labels in the requested order.
Output: R, Q, P

* * *

- TESTED ON: interaction of human SOS1 (SOS1) with human K-RasG12C (Homo sapiens (Human))
- TEST DETAILS: Biochemical assay: hK-RasG12C interaction assay with hSOS1 (HTRF)
- REPORTED CONDITIONS: GST-hK-RasG12C with His-hSOS1, 60 min incubation at 20° C., mean, read-out: K-RasG12C - SOS interaction assay IC50 (mean)
RECORDED ENDPOINT: IC50 (nM)

> print(dat)
                                   compound  endpoint.result
1  CCC(O)C(F)(F)c1cccc([C@@H](C)Nc2nc(C)nc3cnc(P(C)(C)=O)cc23)c1F (single isomer, unassigned) [Example 65]             10.5
2  CC(=O)N1CCP(=O)(c2cc3c(N[C@H](C)c4cccc(C(F)(F)F)c4C)nc(C)nc3nc2C)CC1             4.35
3  Cc1nc(N[C@H](C)c2cccc(C(F)(F)C(=O)C(C)C)c2F)c2cc(P(C)(C)=O)ncc2n1             33.3
4  Cc1nc(N[C@H](C)c2cccc(C(F)(F)F)c2C)c2cc(P(C)(C)=O)cnc2n1             16.3
5  Cc1nc(N[C@H](C)c2cccc(C(F)F)c2F)c2cc(P(C)(C)=O)c(C(F)(F)F)nc2n1             44.3

[1] Cc1nc(N[C@H](C)c2cccc(C(F)(F)CN(C)S(C)(=O)=O)c2F)c2cc(P3(=O)CCN(C(=O)C4CC4)CC3)ncc2n1
[2] CO[C@@H](C)C(=O)N1CCP(=O)(c2cc3c(N[C@H](C)c4cccc(C(F)(F)F)c4C)nc(C)nc3cn2)CC1
[3] CC(=O)N1CCP(=O)(c2cc3c(N[C@H](C)c4cccc(C(F)(F)F)c4C)nc(C)nc3c(C3CC3)n2)CC1
[4] Cc1nc(N[C@H](C)c2cccc(C(F)(F)C(=O)N(C)C)c2F)c2cc(P(C)(C)=O)ncc2n1
Input: Hey, quick one: sort these by IC50, low to high? Answer by listing the labels in the requested order.
Output: 1, 2, 3, 4
(1: 2.95 nM, 2: 6.82 nM, 3: 21.5 nM, 4: 156 nM)
